- System: HepG2 cells
- ASSAY PROTOCOL: High content imaging cytotoxicity parameters: selected cell count per valid field (SCC) and CMFDA cytoplasm average intensity
- DETAILS: human
RECORDED ENDPOINT: SCC −S9 highest conc. <50% cytotox. over control (µM)

compound=C[N+](C)(C)CCCl.[Cl-] quantitative_result=1000
compound="O=P1(N(CCCl)CCCl)NCCCO1 (stereo not shown) [Cyclophosphamide]" quantitative_result=1000
compound="O=C1NS(=O)(=O)c2ccccc21.[Na] [Sodium saccharin]" quantitative_result=1000
compound="C=CC(=O)OCC [Ethyl acrylate]" quantitative_result=1000
compound="CCCCC(CC)COC(=O)c1ccccc1C(=O)OCC(CC)CCCC (stereo not shown) [Di-(2-ethylhexyl)phthalate]" quantitative_result=1000
compound=Oc1ccc(Cl)cc1Cl quantitative_result=250
compound="c1ccc2c(c1)cc1ccc3cccc4ccc2c1c34 [Benzo[a]pyrene]" quantitative_result=3.91
compound="Cc1c2ccccc2c(C)c2c1ccc1ccccc12 [7,12-Dimethylbenz[a]anthracene]" quantitative_result=125
compound=c1ccncc1 quantitative_result=1000
compound=Nc1ccc(Cl)cc1 quantitative_result=1000

---

Readings of SCC +S9 highest conc. <50% cytotox. over control for the listed compounds
- System: HepG2 cells
- ASSAY PROTOCOL: High content imaging cytotoxicity parameters: selected cell count per valid field (SCC) and CMFDA cytoplasm average intensity
- DETAILS: HepG2 cells, 48 h, selected cell count per valid field, with rat liver S9 (+S9)
Counter-ions that a name gives are not always drawn.
RECORDED ENDPOINT: SCC +S9 highest conc. <50% cytotox. over control (µM)

compound="COC(N)=O [Methyl carbamate]" quantitative_result=1000
compound="CCCCC(CC)COP(=O)(OCC(CC)CCCC)OCC(CC)CCCC (stereo not drawn) [Tris(2-ethylhexyl)phosphate]" quantitative_result=1000
compound="CN(C)N=O [Dimethylnitrosamine]" quantitative_result=1000
compound="CC(=O)Nc1ccc2c(c1)Cc1ccccc1-2 [2-Acetylaminofluorene]" quantitative_result=1000
compound="[Cl][Cd][Cl] [Cadmium chloride]" quantitative_result=125
compound="O=C1OC(=O)c2ccccc21 [Phthalic anhydride]" quantitative_result=1000
compound="Nc1ccccc1C(=O)O [o-Anthranilic acid]" quantitative_result=1000
compound="Cn1c(N)nc2c3cccnc3ccc21 [IQ, 2-Amino-3methylimidazo[4,5-f]quinoline]" quantitative_result=125
compound="Cn1c(N)nc2ncc(-c3ccccc3)cc21 [PhIP•HCl]" quantitative_result=1000
compound="Nc1nc(N)nc(N)n1 [Melamine]" quantitative_result=1000
compound="NC(N)=O [Urea]" quantitative_result=1000
compound="CCN(N=O)C(N)=O [Ethylnitrosourea]" quantitative_result=1000
compound="O=[As]O [Sodium arsenite]" quantitative_result=125
compound="Cc1ccc(N)cc1N [2,4-diaminotoluene]" quantitative_result=1000
compound="ClC(Cl)(Cl)C(Cl)(Cl)Cl [Hexachloroethane]" quantitative_result=1000

---

- Test system: HepG2 cells
- ASSAY PROTOCOL: High content imaging cytotoxicity parameters: selected cell count per valid field (SCC) and CMFDA cytoplasm average intensity
- DETAILS: human, 48 h
# strict inequality: SCC −S9 highest conc. <50% cytotox. over control < 500 µM yields T, everything else yields F

molecule="COS(C)(=O)=O [Methylmethane sulfonate]" answer_label=T
molecule="c1ccc2c(c1)ccc1ccccc12 [Phenanthrene]" answer_label=F
molecule="OCCNCCO [Diethanolamine]" answer_label=F
molecule="CC(C)(C)c1cc(O)ccc1O [Tertiary-butylhydroquinone]" answer_label=T
molecule="OCc1ccccc1 [Benzyl alcohol]" answer_label=F
molecule="C=CCc1ccc(O)c(OC)c1 [Eugenol]" answer_label=F
molecule="OC[C@@H](O)[C@@H](O)[C@H](O)[C@H](O)CO [D-mannitol]" answer_label=F
molecule="O=C(N[C@H](CO)[C@H](O)c1ccc([N+](=O)[O-])cc1)C(Cl)Cl [Chloramphenicol]" answer_label=F
molecule="CCc1cc(C(N)=S)ccn1 [Ethionamide]" answer_label=F
molecule="Oc1ccc(O)cc1 [Hydroquinone]" answer_label=T
molecule="Oc1cccc(O)c1 [1,3-Dihydroxybenzene (resorcinol), 1,3-Dihydroxybenzene]" answer_label=F
molecule="CC(=O)[C@H]1CC[C@H]2[C@@H]3CCC4=CC(=O)CC[C@]4(C)[C@H]3CC[C@]12C [Progesterone]" answer_label=T
molecule="COc1cc(/C=C/C(=O)CC(=O)/C=C/c2ccc(O)c(OC)c2)ccc1O [Curcumin]" answer_label=T
molecule="CC(C)C=O [Isobutyraldehyde]" answer_label=F
molecule="Cc1noc(NS(=O)(=O)c2ccc(N)cc2)c1C [Sulfisoxazole]" answer_label=F
molecule="Nc1nc[nH]n1 [Amitrole]" answer_label=F
molecule="CC[C@H]1OC(=O)[C@H](C)[C@@H](O[C@H]2C[C@@](C)(OC)[C@@H](O)[C@H](C)O2)[C@H](C)[C@@H](O[C@@H]2O[C@H](C)C[C@H](N(C)C)[C@H]2O)[C@](C)(O)C[C@@H](C)C(=O)[C@H](C)[C@@H](O)[C@]1(C)O [Erythromycin stearate]" answer_label=T
molecule="CCCC(O)C(CC)CO (centres unmarked) [2-Ethyl-1,3-hexanediol]" answer_label=F
